Please consider the recorded EC50 for KOP receptor (Homo sapiens, UniProt P41145) in what follows.
Just the number please, in nM, no unit attached.

Worked cases, answers included:
[
  {
    "mol": "Cc1ccccc1CC(=O)O[C@@]12CCC(=O)[C@@H]3Oc4c(O)ccc5c4[C@@]31CCN(CC1CC1)[C@@H]2C5",
    "EC50 (nM)": 2.9
  },
  {
    "mol": "O=C(Cc1ccccc1Cl)O[C@@]12CCC(=O)[C@@H]3Oc4c(O)ccc5c4[C@@]31CCN(CC1CC1)[C@@H]2C5",
    "EC50 (nM)": 13.9
  }
]

Attention now turns to another entry.
Recorded EC50 for Cc1cccc(CC(=O)O[C@@]23CCC(=O)[C@@H]4Oc5c(O)ccc6c5[C@@]42CCN(CC2CC2)[C@@H]3C6)c1 with KOP receptor (Homo sapiens, UniProt P41145), please?
1

* * *

molecular target: KOP receptor (Homo sapiens); test: [35S]GTPγS antagonist assay versus U69593; details: [35S]GTPγS, in the presence of 1 μM U69593
Sequence (P41145 whole entry): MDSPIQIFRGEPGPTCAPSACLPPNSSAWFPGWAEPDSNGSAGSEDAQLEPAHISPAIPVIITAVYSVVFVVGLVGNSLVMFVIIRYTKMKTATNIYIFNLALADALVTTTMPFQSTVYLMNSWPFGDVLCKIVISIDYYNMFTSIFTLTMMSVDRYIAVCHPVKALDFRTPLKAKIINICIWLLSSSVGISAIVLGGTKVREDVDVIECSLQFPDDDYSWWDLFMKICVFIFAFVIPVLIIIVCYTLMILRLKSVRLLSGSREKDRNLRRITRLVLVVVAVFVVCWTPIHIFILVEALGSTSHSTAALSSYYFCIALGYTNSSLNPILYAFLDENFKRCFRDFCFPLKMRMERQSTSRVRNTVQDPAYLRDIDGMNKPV
readout_type: pIC50
// pIC50: -log10(molar conc.)

Need pIC50, item COc1ccc(CC(=O)O[C@@]23CCC(=O)[C@@H]4Oc5c(O)ccc6c5[C@@]42CCN(CC2CC2)[C@@H]3C6)cc1
7.91

* * *

molecular target: MOP receptor (Homo sapiens); experiment: [35S]GTPγS antagonist assay and Schild analysis versus DAMGO; conditions: in the presence of 1 μM DAMGO; read-out: IC50 inhibiting DAMGO stimulation of [35S]GTPγS binding, MOP
Sequence (P35372 whole entry): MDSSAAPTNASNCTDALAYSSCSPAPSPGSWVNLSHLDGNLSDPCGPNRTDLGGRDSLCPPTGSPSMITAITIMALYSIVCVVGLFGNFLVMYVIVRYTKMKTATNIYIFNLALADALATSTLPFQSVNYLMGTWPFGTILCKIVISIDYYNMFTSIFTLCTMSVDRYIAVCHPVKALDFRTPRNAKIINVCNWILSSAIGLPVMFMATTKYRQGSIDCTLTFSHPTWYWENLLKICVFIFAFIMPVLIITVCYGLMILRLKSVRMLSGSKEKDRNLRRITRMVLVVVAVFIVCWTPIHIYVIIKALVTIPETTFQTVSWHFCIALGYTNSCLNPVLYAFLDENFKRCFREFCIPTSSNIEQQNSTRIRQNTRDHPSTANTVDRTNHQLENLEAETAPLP
readout_type: pIC50
Kindly note that pIC50 refers to -log10 of the concentration in mol/L and answer with the value alone.

I am curious: what pIC50 value has been reported for COc1ccc(CC(=O)O[C@@]23CCC(=O)[C@@H]4Oc5c(O)ccc6c5[C@@]42CCN(CC2CC2)[C@@H]3C6)cc1 [Compound 7f] ?
7.91

* * *

Recorded below: Ki, system DOP receptor (Homo sapiens).

// worked examples, Ki included
[
  {
    "mol": "Cc1ccccc1CC(=O)O[C@@]12CCC(=O)[C@@H]3Oc4c(O)ccc5c4[C@@]31CCN(CC1CC1)[C@@H]2C5",
    "Ki": "1.97 nM"
  },
  {
    "mol": "O=C(Cc1ccccc1Cl)O[C@@]12CCC(=O)[C@@H]3Oc4c(O)ccc5c4[C@@]31CCN(CC1CC1)[C@@H]2C5",
    "Ki": "3.24 nM"
  },
  {
    "mol": "O=C(Cc1ccccc1F)O[C@@]12CCC(=O)[C@@H]3Oc4c(O)ccc5c4[C@@]31CCN(CC1CC1)[C@@H]2C5",
    "Ki": "4.07 nM"
  }
]

As a next step, examine the compound that follows.
// map Cc1cccc(CC(=O)O[C@@]23CCC(=O)[C@@H]4Oc5c(O)ccc6c5[C@@]42CCN(CC2CC2)[C@@H]3C6)c1 to recorded Ki (system: DOP receptor (Homo sapiens))
Sequence (P41143 whole entry): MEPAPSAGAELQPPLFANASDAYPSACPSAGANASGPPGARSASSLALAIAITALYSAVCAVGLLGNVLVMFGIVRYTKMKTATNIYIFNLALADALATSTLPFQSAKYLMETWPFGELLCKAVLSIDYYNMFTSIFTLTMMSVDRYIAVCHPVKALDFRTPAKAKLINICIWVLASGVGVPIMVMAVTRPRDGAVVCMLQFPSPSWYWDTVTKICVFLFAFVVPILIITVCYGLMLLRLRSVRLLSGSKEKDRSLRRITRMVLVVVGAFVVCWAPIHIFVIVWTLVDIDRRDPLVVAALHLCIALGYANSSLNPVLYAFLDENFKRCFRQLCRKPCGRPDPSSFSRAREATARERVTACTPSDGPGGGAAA
5.58 nM

* * *

Overview of recorded NOP % stim for various compounds
molecular target: NOP receptor (Homo sapiens); construct: expressed in transfected cells; assay: [35S]GTPγS binding stimulation (agonist), CHO membranes; format: biochemical; conditions: [35S]GTPγS stimulation relative to standard agonist N/OFQ
Sequence (P41146 whole entry): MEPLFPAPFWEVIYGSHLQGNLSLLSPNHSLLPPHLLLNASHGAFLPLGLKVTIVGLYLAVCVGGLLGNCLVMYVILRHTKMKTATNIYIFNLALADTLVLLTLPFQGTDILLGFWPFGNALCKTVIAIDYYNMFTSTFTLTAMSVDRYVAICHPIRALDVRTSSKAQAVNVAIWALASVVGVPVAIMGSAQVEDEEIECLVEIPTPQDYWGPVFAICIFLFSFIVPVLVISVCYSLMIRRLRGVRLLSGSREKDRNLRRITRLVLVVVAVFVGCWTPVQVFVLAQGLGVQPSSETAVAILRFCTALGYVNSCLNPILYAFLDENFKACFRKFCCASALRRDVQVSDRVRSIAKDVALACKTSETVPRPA
The answer consists of two parts: a number and, after it, its unit.

Solved entries:
[
  {
    "compound": "O=C(Cc1ccccc1Cl)O[C@@]12CCC(=O)[C@@H]3Oc4c(O)ccc5c4[C@@]31CCN(CC1CC1)[C@@H]2C5 [Compound 7k]",
    "result_value": "49.9 ± 0.7%"
  },
  {
    "compound": "O=C(Cc1ccccc1F)O[C@@]12CCC(=O)[C@@H]3Oc4c(O)ccc5c4[C@@]31CCN(CC1CC1)[C@@H]2C5 [Compound 7i]",
    "result_value": "14.5 ± 2.9%"
  }
]

State the recorded NOP % stim for this entry: Cc1cccc(CC(=O)O[C@@]23CCC(=O)[C@@H]4Oc5c(O)ccc6c5[C@@]42CCN(CC2CC2)[C@@H]3C6)c1 [Compound 7d]
59.3 ± 2.4%

Where these numbers come from: paper PMC6156383
